# credit: the supplement of paper PMC11061612

- Test system: SNU-175 (Colorectal Carcinoma)
- EXPERIMENT_SUMMARY: Bliss excess, mean over the matrix (fraction); higher = more synergy
Bliss excess values for the compounds below.
Enter the number alone.

COMPOUND	Bliss excess
CC1(C)CCC(CN2CCN(c3ccc(C(=O)NS(=O)(=O)c4ccc(NCC5CCOCC5)c([N+](=O)[O-])c4)c(Oc4cnc5[nH]ccc5c4)c3)CC2)=C(c2ccc(Cl)cc2)C1 [Venetoclax] + CCN(CCO)CCCOc1ccc2c(Nc3cc(CC(=O)Nc4cccc(F)c4)[nH]n3)ncnc2c1 [AZD2811] (first compound max 1 µM, 7x7, partner max 1 µM)	-0.0552
CN(CCO)CC[C@H](CSc1ccccc1)Nc1ccc(S(=O)(=O)NC(=O)c2ccc(N3CCC([C@@H](O)c4ccccc4-c4ccc(Cl)cc4)CC3)cc2)cc1S(=O)(=O)C(F)(F)F [AZD4320] + C=CCn1c(=O)c2cnc(Nc3ccc(N4CCN(C)CC4)cc3)nc2n1-c1cccc(C(C)(C)O)n1 [AZD1775] (first compound max 1 µM, partner max 1 µM)	-0.0371
CC(=O)c1c(C)c2cnc(Nc3ccc(N4CCNCC4)cn3)nc2n(C2CCCC2)c1=O [Palbociclib] + CC1(C)CCC(CN2CCN(c3ccc(C(=O)NS(=O)(=O)c4ccc(NCC5CCOCC5)c([N+](=O)[O-])c4)c(Oc4cnc5[nH]ccc5c4)c3)CC2)=C(c2ccc(Cl)cc2)C1 [Venetoclax] (first compound max 10 µM, 7x7, partner max 1 µM)	0.0639

(Q) Which measured Bliss excess value corresponds to NC1(C(=O)N[C@@H](CCO)c2ccc(Cl)cc2)CCN(c2ncnc3[nH]ccc23)CC1 [Capivasertib] + Cn1cnc2c(F)c(Nc3ccc(Br)cc3Cl)c(C(=O)NOCCO)cc21 [Selumetinib] (first compound max 10 µM, 7x7, partner max 10 µM) ?
(A) -0.0408

(Q) Also check Cc1c2c(nn1C)CSCc1cc(n(C)n1)CSc1cc(c3ccccc3c1)OCCCc1c(C(=O)O)n(C)c3c-2c(Cl)ccc13 [AZD5991] + C[C@@H](Nc1cc(F)cc(F)c1)c1cc(C(=O)N(C)C)cc2c(=O)cc(N3CCOCC3)oc12 [AZD8186] (first compound max 1 µM, 7x7, partner max 3 µM)
(A) 0.0048

(Q) Cool, now C[C@@H]1COCCN1c1cc(C2([S@](C)(=N)=O)CC2)nc(-c2ccnc3[nH]ccc23)n1 [AZD6738] + O=C(c1cc(Cc2n[nH]c(=O)c3ccccc23)ccc1F)N1CCN(C(=O)C2CC2)CC1 [Olaparib] (first compound max 10 µM, 7x7, partner max 10 µM)
(A) 0.0311

====

- Tested on: CML-T1 (Chronic Myelogenous Leukemia)
- EXPERIMENT_SUMMARY: combination Emax (second highest fraction inhibited in the dose matrix, 72 h); higher = more inhibition; extreme values may be limits of the assay
VALUE_KIND: combination Emax
Keep the answer to the number alone.

MOLECULE	TARGET_SYSTEM	combination Emax
C[C@@H]1COCCN1c1cc(C2([S@](C)(=N)=O)CC2)nc(-c2ccnc3[nH]ccc23)n1 [AZD6738] + Nc1ccn([C@@H]2O[C@H](CO)[C@@H](O)C2(F)F)c(=O)n1 [Gemcitabine] (first compound max 10 µM, 7x7, partner max 0.3 µM)	CML-T1 (Chronic Myelogenous Leukemia)	1

As a next step, examine the molecule that follows.
(Q) Query (molecule): NC1(C(=O)N[C@@H](CCO)c2ccc(Cl)cc2)CCN(c2ncnc3[nH]ccc23)CC1 [Capivasertib] + CC(C)n1c(=O)n(C)c2cnc3cc(F)c(-c4ccc(OCCCN5CCCCC5)nc4)cc3c21 [AZD1390] (first compound max 10 µM, 7x7, partner max 0.3 µM) ; field requested: combination Emax
(A) 0.656

====

- System: RMG-I (Ovarian Carcinoma)
- EXPERIMENT_SUMMARY: Bliss excess, mean over the matrix (fraction); higher = more synergy
# Bliss excess values compiled below
# print the numeric value only

Worked examples, 2 compounds total:
COMPOUND	Bliss excess
C[C@@H]1COCCN1c1cc(C2([S@](C)(=N)=O)CC2)nc(-c2ccnc3[nH]ccc23)n1 [AZD6738] + Nc1ccn([C@@H]2O[C@H](CO)[C@@H](O)C2(F)F)c(=O)n1 [Gemcitabine] (first compound max 10 µM, 7x7, partner max 0.3 µM)	-0.0514
CC(=O)c1c(C)c2cnc(Nc3ccc(N4CCNCC4)cn3)nc2n(C2CCCC2)c1=O [Palbociclib] + Cn1cnc2c(F)c(Nc3ccc(Br)cc3Cl)c(C(=O)NOCCO)cc21 [Selumetinib] (first compound max 10 µM, 7x7, partner max 10 µM)	-0.0165

For the next question, use this compound.
(Q) // Bliss excess lookup, key: Cc1c2c(nn1C)CSCc1cc(n(C)n1)CSc1cc(c3ccccc3c1)OCCCc1c(C(=O)O)n(C)c3c-2c(Cl)ccc13 [AZD5991] + CS(=O)(=O)CCNCc1ccc(-c2ccc3ncnc(Nc4ccc(OCc5cccc(F)c5)c(Cl)c4)c3c2)o1 [Lapatinib] (first compound max 1 µM, 7x7, partner max 10 µM)
(A) 0.0088

====

- Test system: FLO-1 (Esophageal Adenocarcinoma)
- EXPERIMENT_SUMMARY: combination Emax (second highest fraction inhibited in the dose matrix, 72 h); higher = more inhibition; extreme values may be limits of the assay
So basically, the class depends on measured combination Emax, and the ranges are lo (below 0.6), mid (0.6 to below 0.8), hi (0.8 or more)

Solved cases (6 shown):
COMPOUND	TARGET_SYSTEM	CLASS_LABEL
C=CCn1c(=O)c2cnc(Nc3ccc(N4CCN(C)CC4)cc3)nc2n1-c1cccc(C(C)(C)O)n1 [AZD1775] + CCc1c2c(nc3ccc(O)cc13)-c1cc3c(c(=O)n1C2)COC(=O)[C@]3(O)CC [SN-38] (first compound max 1 µM, partner max 0.3 µM)	FLO-1 (Esophageal Adenocarcinoma)	hi
COc1cccc(OCCCN)c1-c1cc(Nc2cnc(C#N)cn2)n[nH]1 [Prexasertib] + C[C@@H]1COCCN1C2=NC(=NC(=C2)C3(CC3)[S@](=N)(=O)C)C4=C5C=CNC5=NC=C4 [AZD6738] (first compound max 1 µM, 7x7, partner max 10 µM)	FLO-1 (Esophageal Adenocarcinoma)	mid
CN(C)CCCOc1ccc(-c2ccc3ncc4c(c3c2)n(C2CCOCC2)c(=O)n4C)cn1 [AZD0156] + CCN(CCO)CCCOc1ccc2c(Nc3cc(CC(=O)Nc4cccc(F)c4)[nH]n3)ncnc2c1 [AZD2811] (first compound max 1 µM, 7x7, partner max 1 µM)	FLO-1 (Esophageal Adenocarcinoma)	lo
CC1(C)CCC(CN2CCN(c3ccc(C(=O)NS(=O)(=O)c4ccc(NCC5CCOCC5)c([N+](=O)[O-])c4)c(Oc4cnc5[nH]ccc5c4)c3)CC2)=C(c2ccc(Cl)cc2)C1 [Venetoclax] + C1CN(CCC1(C(=O)N[C@@H](CCO)C2=CC=C(C=C2)Cl)N)C3=NC=NC4=C3C=CN4 [Capivasertib] (first compound max 1 µM, 7x7, partner max 3 µM)	FLO-1 (Esophageal Adenocarcinoma)	lo
CC1(C)CCC(CN2CCN(c3ccc(C(=O)NS(=O)(=O)c4ccc(NCC5CCOCC5)c([N+](=O)[O-])c4)c(Oc4cnc5[nH]ccc5c4)c3)CC2)=C(c2ccc(Cl)cc2)C1 [Venetoclax] + C=CCn1c(=O)c2cnc(Nc3ccc(N4CCN(C)CC4)cc3)nc2n1-c1cccc(C(C)(C)O)n1 [AZD1775] (first compound max 1 µM, partner max 1 µM)	FLO-1 (Esophageal Adenocarcinoma)	hi
NC1(C(=O)N[C@@H](CCO)c2ccc(Cl)cc2)CCN(c2ncnc3[nH]ccc23)CC1 [Capivasertib] + Cn1cnc2c(F)c(Nc3ccc(Br)cc3Cl)c(C(=O)NOCCO)cc21 [Selumetinib] (first compound max 10 µM, 7x7, partner max 10 µM)	FLO-1 (Esophageal Adenocarcinoma)	lo

(Q) Which band does CN(CCO)CC[C@H](CSc1ccccc1)Nc1ccc(S(=O)(=O)NC(=O)c2ccc(N3CCC([C@@H](O)c4ccccc4-c4ccc(Cl)cc4)CC3)cc2)cc1S(=O)(=O)C(F)(F)F [AZD4320] + CCN(CCO)CCCOc1ccc2c(Nc3cc(CC(=O)Nc4cccc(F)c4)[nH]n3)ncnc2c1 [AZD2811] (first compound max 1 µM, 7x7, partner max 1 µM) fall in?
(A) mid

(Q) Try this compound next: O=C(c1cc(Cc2n[nH]c(=O)c3ccccc23)ccc1F)N1CCN(C(=O)C2CC2)CC1 [Olaparib] + Cc1c2c(nn1C)CSCc1cc(n(C)n1)CSc1cc(c3ccccc3c1)OCCCc1c(C(=O)O)n(C)c3c-2c(Cl)ccc13 [AZD5991] (first compound max 10 µM, 7x7, partner max 1 µM)
(A) lo

(Q) And COc1nnc2ccc(N3CCC(c4ccc(OCCN5CCN(C)C(=O)[C@H]5C)cc4)CC3)nn12 [AZD5153] + CC1(C)CCC(CN2CCN(c3ccc(C(=O)NS(=O)(=O)c4ccc(NCC5CCOCC5)c([N+](=O)[O-])c4)c(Oc4cnc5[nH]ccc5c4)c3)CC2)=C(c2ccc(Cl)cc2)C1 [Venetoclax] (first compound max 1 µM, 7x7, partner max 1 µM) ?
(A) lo

(Q) Then COc1nnc2ccc(N3CCC(c4ccc(OCCN5CCN(C)C(=O)[C@H]5C)cc4)CC3)nn12 [AZD5153] + CCN(CCO)CCCOc1ccc2c(Nc3cc(CC(=O)Nc4cccc(F)c4)[nH]n3)ncnc2c1 [AZD2811] (first compound max 1 µM, 7x7, partner max 1 µM) ?
(A) lo

(Q) Entry C[C@@H]1COCCN1c1cc(C2([S@](C)(=N)=O)CC2)nc(-c2ccnc3[nH]ccc23)n1 [AZD6738] + O=C(c1cc(Cc2n[nH]c(=O)c3ccccc23)ccc1F)N1CCN(C(=O)C2CC2)CC1 [Olaparib] (first compound max 10 µM, 7x7, partner max 10 µM) please
(A) mid

(Q) And what about the compound COc1nnc2ccc(N3CCC(c4ccc(OCCN5CCN(C)C(=O)[C@H]5C)cc4)CC3)nn12 [AZD5153] + C=CCn1c(=O)c2cnc(Nc3ccc(N4CCN(C)CC4)cc3)nc2n1-c1cccc(C(C)(C)O)n1 [AZD1775] (first compound max 1 µM, partner max 1 µM) ?
(A) hi
